Origin of values: ChEMBL document CHEMBL3232885

For each of the molecules below, state its MIC.
# Tested on: Candida albicans
# test: Antifungal activity against Candida albicans MTCC 227 assessed as growth inhibition after 24 to 48 hrs by broth microdilution method
# Type: functional

[
  {
    "molecule": "COC1=CC(=O)C[C@@H](C)[C@]12Oc1c(Cl)c(OC)cc(OC)c1C2=O [GRISEOFULVIN]",
    "MIC": "100 µg/mL"
  },
  {
    "molecule": "CCOC(=O)C1=C(N)N(c2ccccc2)C2=C(C(=O)CC(C)(C)C2)C1c1c(C)nn(-c2ccccc2)c1-n1ccnc1 (centres undefined)",
    "MIC": "250 µg/mL"
  },
  {
    "molecule": "CCOC(=O)C1=C(N)N(c2ccc(C)cc2)C2=C(C(=O)CC(C)(C)C2)C1c1c(C)nn(-c2ccccc2)c1-n1ccnc1 (centres undefined)",
    "MIC": "1000 µg/mL"
  }
]

Consider the molecule CCOC(=O)C1=C(N)N(c2ccc(Cl)cc2)C2=C(C(=O)CC(C)(C)C2)C1c1c(C)nn(-c2ccccc2)c1-n1ccnc1 (centres undefined) and give its measured MIC.
> 1000 µg/mL

* * *

# Tested on: Escherichia coli
# test: Antibacterial activity against Escherichia coli MTCC 443 assessed as growth inhibition after 24 to 48 hrs by broth microdilution method
# Type: functional
For each of the compounds below, state its MIC.
Numbers only, in µg/mL.

Worked cases, MIC given:
[
  {
    "compound": "Cc1nn(-c2ccccc2)c(-n2ccnc2)c1C1C(C(N)=O)=C(N)N(c2ccc(Cl)cc2)C2=C1C(=O)CC(C)(C)C2 (configuration not stated)",
    "MIC (µg/mL)": 250
  },
  {
    "compound": "Cc1nn(-c2ccccc2)c(-n2ccnc2)c1C1C(C(N)=O)=C(N)N(c2ccc(O)cc2)C2=C1C(=O)CCC2 (configuration not stated)",
    "MIC (µg/mL)": 200
  },
  {
    "compound": "Cc1nn(-c2ccccc2)c(-n2ccnc2)c1C1C(C#N)=C(N)N(c2cccc(O)c2)C2=C1C(=O)CC(C)(C)C2 (configuration not stated)",
    "MIC (µg/mL)": 200
  },
  {
    "compound": "COc1ccc(N2C(N)=C(C#N)C(c3c(C)nn(-c4ccccc4)c3-n3ccnc3)C3=C2CC(C)(C)CC3=O)cc1 (configuration not stated)",
    "MIC (µg/mL)": 200
  },
  {
    "compound": "CCOC(=O)C1=C(N)N(c2ccc(OC)cc2)C2=C(C(=O)CC(C)(C)C2)C1c1c(C)nn(-c2ccccc2)c1-n1ccnc1 (configuration not stated)",
    "MIC (µg/mL)": 100
  },
  {
    "compound": "CCOC(=O)C1=C(N)N(c2cccc(O)c2)C2=C(C(=O)CC(C)(C)C2)C1c1c(C)nn(-c2ccccc2)c1-n1ccnc1 (configuration not stated)",
    "MIC (µg/mL)": 200
  }
]

Could you now consider this next compound?
Consider the compound Cc1nn(-c2ccccc2)c(-n2ccnc2)c1C1C(C#N)=C(N)N(c2ccc(O)cc2)C2=C1C(=O)CC(C)(C)C2 (configuration not stated) and give its measured MIC.
200

* * *

# Tested on: Bacillus subtilis
# test: Antibacterial activity against Bacillus subtilis MTCC 441 assessed as growth inhibition after 24 to 48 hrs by broth microdilution method
# Format: functional
For each of the compounds below, state its log10(MIC).
Scale type: logarithmic (base 10). Underlying MIC unit: µg/mL.

Worked cases, log10(MIC) given:
[
  {
    "compound": "CC1(C)S[C@@H]2[C@H](NC(=O)[C@H](N)c3ccccc3)C(=O)N2[C@H]1C(=O)O [AMPICILLIN]",
    "measurement": 2.00
  },
  {
    "compound": "Cc1nn(-c2ccccc2)c(-n2ccnc2)c1C1C(C(N)=O)=C(N)N(c2cccc(O)c2)C2=C1C(=O)CC(C)(C)C2 (centres undefined)",
    "measurement": 2.30
  },
  {
    "compound": "Cc1nn(-c2ccccc2)c(-n2ccnc2)c1C1C(C(N)=O)=C(N)N(c2ccc(Cl)cc2)C2=C1C(=O)CC(C)(C)C2 (centres undefined)",
    "measurement": 2.30
  },
  {
    "compound": "Cc1ccc(N2C(N)=C(C(N)=O)C(c3c(C)nn(-c4ccccc4)c3-n3ccnc3)C3=C2CC(C)(C)CC3=O)cc1 (centres undefined)",
    "measurement": 2.40
  },
  {
    "compound": "CCOC(=O)C1=C(N)N(c2ccccc2)C2=C(C(=O)CC(C)(C)C2)C1c1c(C)nn(-c2ccccc2)c1-n1ccnc1 (centres undefined)",
    "measurement": 2.40
  }
]

Can you give me log10(MIC) for all of these, one by one?
1. CCOC(=O)C1=C(N)N(c2ccc(O)cc2)C2=C(C(=O)CCC2)C1c1c(C)nn(-c2ccccc2)c1-n1ccnc1 (centres undefined)
2. Cc1nn(-c2ccccc2)c(-n2ccnc2)c1C1C(C#N)=C(N)N(c2ccccc2O)C2=C1C(=O)CC(C)(C)C2 (centres undefined)
3. Cc1ccc(N2C(N)=C(C#N)C(c3c(C)nn(-c4ccccc4)c3-n3ccnc3)C3=C2CC(C)(C)CC3=O)cc1 (centres undefined)

1: 2.30; 2: 2.00; 3: 2.00
